# tested_target: T1, extracellular domain of activin receptor type IIB (ActRIIBecd), biotinylated (Homo sapiens (Human), UniProt Q13705 27-117, amino-biotinylated with amine-PEG3-Biotin)
# T1 construct: immobilised on a streptavidin-coated sensor chip; also called biotinylated ActRIIBecd; extracellular domain of ActRIIB
# T1 sequence: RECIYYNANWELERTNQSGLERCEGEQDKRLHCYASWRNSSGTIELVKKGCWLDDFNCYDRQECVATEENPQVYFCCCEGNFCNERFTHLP
# assay_notes: BIAcore SPR, biotinylated ActRIIBecd on chip; SD ±18.15 nM
measure: pKd
Numbers only, as −log10 of the molar value.

Given AQAKHKGRKRLKSSCKRHPLYAQAKHKGYKRLKSSCKRHPLY (designed binder) [Recombinant polypeptide of clones 11 + 9] , state its recorded pKd.
7.23
